Recorded GI50 by entry
# System: KM12
# experimental details: NCI tumour cell line growth inhibition, 48 h
Activity calls are given as the source filed them. Rule as the data show it: active = GI50 up to about 1.1 µM and inactive = higher.

compound	GI50
c1cc(-c2ccc(-c3ccc(-c4ccc(-c5cccc6nsnc56)[nH]4)c4nsnc34)[nH]2)c2nsnc2c1	> 100 µM (inactive)
NC(=O)CCC(NCc1c2ccccc2[n+]([O-])c2ccccc12)C(=O)O (stereo unspecified)	65.9 µM (inactive)
CCOC(=O)C(Cc1ccc(N=NN(C)C)cc1)NC(=O)CC1c2ccccc2-c2ccccc21 (stereo unspecified)	> 100 µM (inactive)
CCOC(=O)c1cc(C2(OC)CCN(Cc3ccccc3)C2=O)c(-c2cc(C)no2)[nH]1 (stereo unspecified)	> 100 µM (inactive)
CN(C)CC/C(=N\Nc1ccccc1)c1ccccc1	1.57 µM (inactive)
COc1ccc(-n2c(=O)c3nc[nH]c3n(-c3ccc(OC)cc3)c2=S)cc1	> 100 µM (inactive)
COC(=O)/C(=N\NC(N)=O)C(C(=O)C(=O)Nc1ccccc1C(=O)OC)c1nc2ccc(C(=O)c3ccccc3)cc2nc1O (stereo unspecified)	> 100 µM (inactive)
CSC1=N[C@H](c2ccccc2)CS1	> 100 µM (inactive)
C[C@]12CC[C@H]3[C@@H](CC=C4C[C@@H](N5CCCC5)CC[C@@]43C)[C@@H]1C[C@H](N1CCCCC1)[C@@H]2O	> 100 µM (inactive)
N#C/N=C(\NCCc1c[nH]c2ccccc12)NCc1ccccc1	36.4 µM (inactive)
CCOC(=O)CSc1nnc2cc(CN3CCCC3)c(-c3ccc(Cl)cc3)nn12	> 100 µM (inactive)
CC(CO)C1C[C@H](O)[C@@]2(C)CC(=O)C=C(CO)[C@@H]2C1 (stereo partly specified)	> 100 µM (inactive)
Cc1c2cnccc2c(C)c2c1c1ccccc1n2CC1CO1 (stereo unspecified)	1.58 µM (inactive)
CCCN(CCC)c1cc2c(cc1F)c(=O)c(C(=O)O)cn2-c1ccc(N2CCN(C)CC2)cn1	15.1 µM (inactive)
COc1cc(O)c2c(=O)c(OC)c(-c3ccc4c(c3)OCO4)oc2c1OC	> 50 µM (inactive)
C=C(C)[C@@H]1CC[C@@H]2C(=CC[C@]3(C)C([C@H](C)CC/C=C(/C)C(=O)O)CC[C@@]23C)[C@@]1(C)CCC(=O)O (stereo partly specified)	23.4 µM (inactive)
Nc1c(C(=O)O)c2ccc([N+](=O)[O-])cc2c(=O)n1-c1nc2ccccc2s1	> 100 µM (inactive)
COc1ccc(-n2c(C)nc3ccc(NC(=S)Nc4ccccc4)cc3c2=O)cc1	72.3 µM (inactive)
Cc1ccc(S(=O)(=O)OC[C@@H]2CO2)cc1	> 100 µM (inactive)
CSC1(C)CC2C(CC1N1CCOCC1)C2(C)C (stereo unspecified)	> 100 µM (inactive)
Cc1ccc2nc3[nH]nc(N)c3nc2c1	54.6 µM (inactive)
CC1=C(C)C(=O)C2=C(OCCCO2)C1=O	> 10 µM (inactive)
CC(=O)c1ccc2c(ccc(=O)n2C)c1	> 100 µM (inactive)
COc1ccc(Oc2nc3cc(C(F)(F)F)ccc3nc2C(C)C)cc1	31.6 µM (inactive)
Cc1c2cc[n+](C)cc2c(C)c2c1[nH]c1ccc(OC(C)C)cc12	2.75 µM (inactive)
CC(=O)NNc1nc(C)c(C(=O)NNC(=O)C(=O)Nc2ccccc2C#N)s1	50.1 µM (inactive)
CC(C)C(=O)/C=C/c1ccc(Cl)cc1	11.5 µM (inactive)
CN1NC(c2ccc(Cl)cc2)=C(C#N)C(=O)CC1c1ccccc1 (stereo unspecified)	> 100 µM (inactive)
Cc1ccc(S(=O)(=O)Nc2cccc3c(=O)nc[nH]c23)cc1	> 100 µM (inactive)
c1nc(NCCc2c[nH]cn2)c2nc[nH]c2n1	> 100 µM (inactive)
Cc1c2ccccc2c(C2C3C(=O)N(c4cccc5ccccc45)C(=O)C3ON2Cc2ccc(CC(N)=O)cc2)c2ccccc12 (stereo unspecified)	18.2 µM (inactive)
COc1ccc2c(c1OC)C[C@@H]1c3c(cc4c(c3-2)OCO4)CCN1C	28.8 µM (inactive)
CCCCNC(=O)NNC(=O)c1cc(/C=C/c2cccc([N+](=O)[O-])c2)ncn1	> 100 µM (inactive)
CC1C2CC(CC2O)C1(C)C (stereo unspecified)	> 100 µM (inactive)
CN(C)/C(N)=N\C#N	> 100 µM (inactive)
Oc1ccc[nH]c1=[Se]	45.5 µM (inactive)
Cc1cn(C2CCC(/C=N\O)O2)c(=O)[nH]c1=O (stereo unspecified)	> 100 µM (inactive)
CC1CC[C@@]2(OC1)O[C@H]1C[C@H]3[C@@H]4CC[C@H]5C[C@@H](OC6OC(CO)C(OC7OC(CO)C(OC8OC(CO)C(O)C(OC9OC(C)C(OC%10OC(C)C(O)C(O)C%10O)C(O)C9O)C8OC8OCC(O)C(O)C8O)C(O)C7O)C(O)C6O)CC[C@]5(C)[C@H]4CC(=O)[C@]3(C)[C@H]1[C@@H]2C (stereo partly specified)	18.2 µM (inactive)
O=C(NCCN1CCCCC1)c1ccc(I)cc1	> 100 µM (inactive)
Cc1ccccc1S(=O)(=O)Nn1cnc2ccc(S(=O)(=O)Nc3ccc(Cl)cc3)cc2c1=O	12.4 µM (inactive)
COc1cc2ccc3c4cc(OC)c(OC)cc4c[n+](C)c3c2cc1O	> 100 µM (inactive)
